inhibition at 2 µM values by entry
Molecular target: SMO (Mus musculus)
Construct: endogenous in cells; host or cells: C3H10T1/2 (ATCC #CCL-226)
Experiment: Smoothened (SMO)/Sonic Hedgehog (SHh) Transient Transcriptional Activation Assay (Gli-luciferase reporter in C3H10T1/2 cells)
Assay type: cell-based, murine
Details: C3H 10T1/2, 2 μM test compound, SHh 250 ng/ml, 20 hrs, read-out: SMO CELL % INHIBITION @ 2 μM
Protocol: As noted above, the compounds of the invention are useful as inhibitors of SMO. Methods for determining the in vitro activity of these compounds are described below: Smoothened (SMO)/Sonic Hedgehog (SHh) Transient Transcriptional Activation Assay […] Luciferase assays were conducted on Day 4 using Dual-Glo Luciferase assay system (Promega #E2940) according to Promega's protocol. […] Plates were shaken at room temperature for 10 minutes, and then read on TopCount (Perkin-Elmer). […]
Your answer is read as %, so omit the unit and give the number.

compound=COc1cccc2[nH]c(C(=O)N[C@@H]3CCC[C@H](c4nc5ccccc5[nH]4)C3)cc12 system_name="SMO (Mus musculus)" unit_label=% number=80

Ask: So what does the record say about inhibition at 2 µM for O=C(NC1CCCC(c2nc3ccccc3[nH]2)C1)c1ccc(-n2cnnn2)cc1 (stereo not drawn) ?
Result: 95

Ask: Return reported inhibition at 2 µM; argument: CN1C(=O)CCc2cc(C(=O)N[C@@H]3CCC[C@H](c4nc5cc(Cl)ccc5[nH]4)C3)ccc21
Result: 81.2

----------
target: SMO (Mus musculus, UniProt P56726); construct: endogenous in cells; host or cells: C3H10T1/2 (ATCC #CCL-226); experiment: Smoothened (SMO)/Sonic Hedgehog (SHh) Transient Transcriptional Activation Assay (Gli-luciferase reporter in C3H10T1/2 cells); format: cell-based, murine; conditions: C3H 10T1/2, 2 μM test compound, SHh 250 ng/ml, 20 hrs, read-out: SMO CELL % INHIBITION @ 2 μM
Sequence (P56726 33-793): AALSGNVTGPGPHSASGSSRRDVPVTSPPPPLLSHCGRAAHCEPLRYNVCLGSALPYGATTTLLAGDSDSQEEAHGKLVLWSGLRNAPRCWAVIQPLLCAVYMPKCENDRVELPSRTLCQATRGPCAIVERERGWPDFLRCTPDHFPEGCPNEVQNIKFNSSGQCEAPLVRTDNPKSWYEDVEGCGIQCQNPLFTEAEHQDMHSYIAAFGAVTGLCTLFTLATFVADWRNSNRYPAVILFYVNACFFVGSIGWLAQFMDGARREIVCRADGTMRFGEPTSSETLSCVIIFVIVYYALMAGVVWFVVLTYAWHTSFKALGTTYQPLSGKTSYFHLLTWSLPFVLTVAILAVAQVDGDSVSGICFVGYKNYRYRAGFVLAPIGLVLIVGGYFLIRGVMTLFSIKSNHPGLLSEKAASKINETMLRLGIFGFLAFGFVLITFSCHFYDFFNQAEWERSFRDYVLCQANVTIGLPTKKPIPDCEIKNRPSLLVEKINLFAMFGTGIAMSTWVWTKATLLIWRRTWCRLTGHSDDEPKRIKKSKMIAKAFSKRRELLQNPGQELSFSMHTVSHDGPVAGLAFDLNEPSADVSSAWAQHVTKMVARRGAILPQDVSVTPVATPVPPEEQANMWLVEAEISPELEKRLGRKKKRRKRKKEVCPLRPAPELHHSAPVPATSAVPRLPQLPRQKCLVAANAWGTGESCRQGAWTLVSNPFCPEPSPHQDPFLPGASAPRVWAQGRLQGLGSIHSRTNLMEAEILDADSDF
Counter-ions that a name gives are not always drawn.
// values below are reported inhibition at 2 µM

Below: 10 compounds and their reported inhibition at 2 µM.
compound="Cc1ccc2nc([C@H]3CCC[C@@H](NC(=O)c4ccc5c(c4)OCCO5)C3)[nH]c2c1 [Example 168, HCl]" result=106%
compound="O=C(Nc1ccc(Cl)c(C(F)(F)F)c1)N[C@@H]1CCC[C@H](c2nc3ccccc3[nH]2)C1 [Example 238]" result=114%
compound="O=C(N[C@@H]1CCC[C@H](c2nc3ccccc3[nH]2)C1)[C@H]1CCc2ccccc2O1 [Example 207]" result=107%
compound="CN1C(=O)COc2ccc(C(=O)N[C@@H]3CCC[C@H](c4nc5ccccc5n4C)C3)cc21 [Example 297]" result=106%
compound="Cc1cc2nc(C3CCCC(NC(=O)c4ccc5c(c4)OCCO5)C3)[nH]c2cc1C (centres unmarked) [Example 80, HCl]" result=103%
compound="Cn1c(C(=O)N[C@@H]2CCC[C@H](c3nc4ccccc4[nH]3)C2)nc2ccccc21 [Example 175, HCl]" result=81%
compound="O=C(N[C@@H]1CCC[C@H](c2nc3ccc(Cl)cc3[nH]2)C1)c1ccc2c(c1)OCCO2 [Example 178, HCl]" result=110%
compound="COc1ccc2[nH]c([C@H]3CCC[C@H](NC(=O)c4ccc5c(c4)OCCO5)C3)nc2c1 [Example 254, HCl]" result=91%
compound="O=C(NC1CCCC(c2nc3ccccc3[nH]2)C1)c1cnn2c1CCCC2 (centres unmarked) [Example 122]" result=92%
compound="O=C(N[C@@H]1CCC[C@H](c2nc3ccccc3[nH]2)C1)c1ccc2scnc2c1 [Example 216]" result=86%

From here, focus on the item given below.
Ask: Recorded inhibition at 2 µM for O=C(NC12CCCC(c3nc4cc(Cl)ccc4[nH]3)(C1)C2)c1cc2c(cn1)OCCO2 [Example 271] , please?
Result: 84.7%

Where these numbers come from: patent US20100029615A1
